# assay-system: OAT1 (Homo sapiens)
# assay-info: [14C]-PAH uptake and its inhibition in HEK293-Flp-In OAT1 cells
# conditions: IC50, inhibition of PAH uptake via OAT1, 9.5 µM [14C]-PAH; 3 min; applied concomitantly; Lab. 2
measurement-name: IC50 (µM)

compound="CC(=O)NCCCS(=O)(=O)O [acamprosate, acetylhomotaurinate]" measurement_name=IC50 numeric_result=638

* * *

# assay-system: OAT1 (Homo sapiens, UniProt Q4U2R8)
# Sequence (Q4U2R8 whole entry): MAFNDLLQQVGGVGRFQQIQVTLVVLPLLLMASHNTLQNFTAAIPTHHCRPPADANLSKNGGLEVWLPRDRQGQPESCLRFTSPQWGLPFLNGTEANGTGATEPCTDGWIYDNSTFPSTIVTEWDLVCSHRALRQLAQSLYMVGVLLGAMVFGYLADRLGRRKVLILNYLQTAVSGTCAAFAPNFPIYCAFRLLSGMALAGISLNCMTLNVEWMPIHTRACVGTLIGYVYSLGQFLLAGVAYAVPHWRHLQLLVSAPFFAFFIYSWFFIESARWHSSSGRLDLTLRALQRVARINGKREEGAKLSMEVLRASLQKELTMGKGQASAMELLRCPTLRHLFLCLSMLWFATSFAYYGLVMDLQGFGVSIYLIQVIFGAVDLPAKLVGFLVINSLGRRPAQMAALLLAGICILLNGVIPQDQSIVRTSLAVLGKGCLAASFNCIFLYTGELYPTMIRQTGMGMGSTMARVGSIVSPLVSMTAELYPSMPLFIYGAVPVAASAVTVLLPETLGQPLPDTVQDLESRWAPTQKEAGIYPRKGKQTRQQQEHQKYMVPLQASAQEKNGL
# assay-info: [14C]-PAH uptake and its inhibition in HEK293-Flp-In OAT1 cells
# conditions: human, hek293-flp-in oat1 cells, IC50, p-Aminohippuric Acid (PAH), input for DDI index, Table A1; for acamprosate interval of obtained values
measurement-name: IC50

compound="CC(=O)NCCCS(=O)(=O)O [acamprosate, acetylhomotaurinate]" measurement_name=IC50 result="287 to 1230 µM"
